target: IDO protease in HeLa cells (Homo sapiens (Human)); assay: Inhibition of IDO protease in HeLa cells (IFNγ-induced, Trp/Kyn by RapidFire/MS); settings: HeLa cells, 25 ng/ml IFNγ, 48 hours
Sequence (P14902 whole entry): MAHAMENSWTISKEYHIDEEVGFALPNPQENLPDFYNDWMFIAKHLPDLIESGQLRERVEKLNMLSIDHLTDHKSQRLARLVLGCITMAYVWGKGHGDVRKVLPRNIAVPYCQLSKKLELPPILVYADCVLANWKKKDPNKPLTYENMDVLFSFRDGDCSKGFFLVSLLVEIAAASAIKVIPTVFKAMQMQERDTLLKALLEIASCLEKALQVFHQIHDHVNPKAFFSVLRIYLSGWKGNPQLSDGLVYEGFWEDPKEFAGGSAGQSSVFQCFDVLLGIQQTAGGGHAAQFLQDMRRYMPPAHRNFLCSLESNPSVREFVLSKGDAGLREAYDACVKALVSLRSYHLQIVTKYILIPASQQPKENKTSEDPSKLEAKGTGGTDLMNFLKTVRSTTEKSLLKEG
pIC50: −log10 of the molar value.
Outcome label depends on pIC50 relative to 8: at/above gives 1, below gives -1.

Past entries and their recorded results:
[[record]]
compound = "NS(=O)(=O)N1CC(CNc2nonc2/C(=N/O)Nc2ccc(F)c(Br)c2)C1 [Compound 4]"
assigned_category = 1

[[record]]
compound = "NS(=O)(=O)N1CC(CCSc2nonc2/C(=N/O)Nc2ccc(F)c(Br)c2)C1 [Compound 149]"
assigned_category = -1


q: Is it the case that NC(=O)N1CC(CNc2nonc2/C(=N/O)Nc2ccc(F)c(Br)c2)C1 [Compound 140] has pIC50 reaching or exceeding 8?
a: -1

q: Is it the case that NS(=O)(=O)N1CC(F)(CNc2nonc2/C(=N/O)Nc2ccc(F)c(Br)c2)C1 [Compound 91] has pIC50 reaching or exceeding 8?
a: -1

---

Assay system human IDO1 protease (Homo sapiens (Human), UniProt P14902); read-out recorded as IC50.
API: value field is a number in nM; no unit string.

Known IC50 results, listed for orientation:
[[record]]
molecule = "O=S(=O)(C1CC1)N1CC(CNc2nonc2/C(=N/O)Nc2ccc(F)c(Br)c2)C1"
measured_on = "human IDO1 protease (Homo sapiens (Human), UniProt P14902)"
experimental_readout = "IC50"
quantity_unit = "nM"
endpoint_value = 167

[[record]]
molecule = "NS(=O)(=O)N1CCC(COc2nonc2/C(=N/O)Nc2ccc(F)c(Br)c2)C1 (stereo not shown)"
measured_on = "human IDO1 protease (Homo sapiens (Human), UniProt P14902)"
experimental_readout = "IC50"
quantity_unit = "nM"
endpoint_value = 628

[[record]]
molecule = "CS(=O)(=O)N1CCC(CNc2nonc2/C(=N/O)Nc2ccc(F)c(Br)c2)C1 (stereo not shown)"
measured_on = "human IDO1 protease (Homo sapiens (Human), UniProt P14902)"
experimental_readout = "IC50"
quantity_unit = "nM"
endpoint_value = 79

[[record]]
molecule = "NS(=O)(=O)N1CC[C@H](CNc2nonc2/C(=N/O)Nc2ccc(F)c(Br)c2)C1"
measured_on = "human IDO1 protease (Homo sapiens (Human), UniProt P14902)"
experimental_readout = "IC50"
quantity_unit = "nM"
endpoint_value = 84

[[record]]
molecule = "NS(=O)(=O)N1CC[C@@H](CNc2nonc2/C(=N/O)Nc2ccc(F)c(Br)c2)C1"
measured_on = "human IDO1 protease (Homo sapiens (Human), UniProt P14902)"
experimental_readout = "IC50"
quantity_unit = "nM"
endpoint_value = 112

[[record]]
molecule = "NS(=O)(=O)N1CCCC(CNc2nonc2/C(=N/O)Nc2ccc(F)c(Br)c2)C1 (stereo not shown)"
measured_on = "human IDO1 protease (Homo sapiens (Human), UniProt P14902)"
experimental_readout = "IC50"
quantity_unit = "nM"
endpoint_value = 254

[[record]]
molecule = "CS(=O)(=O)N1CC(CNc2nonc2C(=NO)Nc2ccc(F)c(Br)c2)C1"
measured_on = "human IDO1 protease (Homo sapiens (Human), UniProt P14902)"
experimental_readout = "IC50"
quantity_unit = "nM"
endpoint_value = 115

[[record]]
molecule = "CC(C)(C)OC(=O)N1CCC(CNc2nonc2/C(=N/O)Nc2ccc(F)c(Br)c2)C1 (stereo not shown)"
measured_on = "human IDO1 protease (Homo sapiens (Human), UniProt P14902)"
experimental_readout = "IC50"
quantity_unit = "nM"
endpoint_value = 276

[[record]]
molecule = "CN(C)S(=O)(=O)N1CC(CNc2nonc2C(=NO)Nc2ccc(F)c(Br)c2)C1"
measured_on = "human IDO1 protease (Homo sapiens (Human), UniProt P14902)"
experimental_readout = "IC50"
quantity_unit = "nM"
endpoint_value = 142


q: State measured IC50 of the molecule `CC(C)(C)OC(=O)N1CC(CNc2nonc2/C(=N/O)Nc2ccc(F)c(Br)c2)C1` with human IDO1 protease (Homo sapiens (Human), UniProt P14902).
Sequence (P14902 whole entry): as above
a: 430
